Target: Mitogen-activated protein kinase kinase kinase kinase 1 (Homo sapiens)
Sequence (Q92918 whole entry): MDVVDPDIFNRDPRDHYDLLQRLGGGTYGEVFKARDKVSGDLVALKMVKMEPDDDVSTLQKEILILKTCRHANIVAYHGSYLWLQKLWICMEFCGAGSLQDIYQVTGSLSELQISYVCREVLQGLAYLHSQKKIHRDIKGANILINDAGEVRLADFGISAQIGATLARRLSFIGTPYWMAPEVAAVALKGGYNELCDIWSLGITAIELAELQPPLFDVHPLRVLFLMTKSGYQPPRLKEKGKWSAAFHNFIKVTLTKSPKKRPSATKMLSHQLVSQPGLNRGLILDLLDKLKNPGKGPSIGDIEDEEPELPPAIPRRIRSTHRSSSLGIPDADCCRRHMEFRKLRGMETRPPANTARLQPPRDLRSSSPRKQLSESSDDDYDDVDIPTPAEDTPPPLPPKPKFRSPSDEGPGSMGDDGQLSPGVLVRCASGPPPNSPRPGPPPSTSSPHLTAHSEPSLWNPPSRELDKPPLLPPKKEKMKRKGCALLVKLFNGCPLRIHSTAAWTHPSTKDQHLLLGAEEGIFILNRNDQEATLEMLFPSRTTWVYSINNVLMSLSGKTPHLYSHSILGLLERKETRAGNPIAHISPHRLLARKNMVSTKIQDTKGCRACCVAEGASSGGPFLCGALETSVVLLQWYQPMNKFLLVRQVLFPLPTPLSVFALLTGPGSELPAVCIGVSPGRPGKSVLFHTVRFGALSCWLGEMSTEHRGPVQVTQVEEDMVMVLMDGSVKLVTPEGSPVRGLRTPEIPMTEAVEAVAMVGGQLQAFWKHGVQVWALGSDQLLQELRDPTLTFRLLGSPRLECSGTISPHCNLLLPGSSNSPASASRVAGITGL
Assay: HPK1-SLP76 TR-FRET ASSAY
READOUT TYPE: IC50 (nM)
Give just the numeric value; nM need not be written.

Take a look at these entries with their results.
Exercise: Recorded IC50 of CNC(=O)c1ccc(Nc2ncc3c(N)c(F)c(-c4cnc5c(c4C)NCCO5)cc3n2)c(OC)c1 [WO2022098806, Compound 2-74] , please.
Key: 0.27

Exercise: # input molecule: COc1cc2c(cc1Nc1ncc3ccc(N4CC(O)(C(F)(F)F)C4)cc3n1)CN(C)CC2 [WO2022098806, Compound 3-54] ; wanted: its IC50
Key: 189

Exercise: Item Cc1c(-c2ccc3cnc(Nc4ccc(CS(=O)(=O)C(C)C)cc4)nc3c2)cnc2c1NCCO2 [WO2022098806, Compound 1-129] has what recorded IC50?
Key: 0.09

Exercise: Would you kindly share the measured IC50 for Cc1c(-c2cc3nc(Nc4ccc5c(c4)C(C)(C)OC5=O)ncc3c(N)c2F)cnc2c1NCCO2 [WO2022098806, Compound 2-41] ?
Key: 0.08

Exercise: State the recorded IC50 for this entry: COc1cc([C@@H](C)S(C)(=O)=O)ccc1Nc1ncc2c(N)c(F)c(-c3cnc4c(c3C)NCCO4)cc2n1 [WO2022098806, Compound 2-56]
Key: 0.1

// next entry
Exercise: What does the record list as IC50 for Cc1c(-c2cc3nc(Nc4ccc([C@H](C)S(C)(=O)=O)cc4)ncc3cc2F)cnc2c1NCCO2 [WO2022098806, Compound 1-124] ?
Key: 0.04
